Tested on: biotinyl-Phe-oxazolone
Assay: self-aminoacylation, catalytic enhancement (BFO) (fold over background); higher = more active; k-Seq, kA / k0A0; sequences stand for … in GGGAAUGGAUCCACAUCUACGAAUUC…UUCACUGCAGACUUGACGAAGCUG
This sample holds only a part of the variants without activity.
Hi there, I'd appreciate the recorded self-aminoacylation for every entry that follows.
Quick one: just the number, no unit, thanks!

Form: sequence = AUUAUCUUGGUCAUCGAGUGA [Fam2.1 aminoacylation ribozyme variant] ; self-aminoacylation = 12.4

Form: sequence = AAAUUAGCUAAUAGUCGCAAG [Fam3.1 aminoacylation ribozyme variant] ; self-aminoacylation = 2.21

Form: sequence = AUUACACCGGUCAUCGAGUGA [Fam2.1 aminoacylation ribozyme variant] ; self-aminoacylation = 29.4

Form: sequence = AUUGCACUGGUCAUCGAGUGA [Fam2.1 aminoacylation ribozyme variant] ; self-aminoacylation = 32.7

Form: sequence = AUUCACCGAGGUCAUCGGGUC [Fam2.2 aminoacylation ribozyme variant] ; self-aminoacylation = 7.57

Form: sequence = AUUCACCUAGGUCAACAGGUG [Fam2.2 aminoacylation ribozyme variant] ; self-aminoacylation = 5.63

Form: sequence = AUUACCCUGAGCAUCGAGUGA [Fam2.1 aminoacylation ribozyme variant] ; self-aminoacylation = 8.97

Form: sequence = UUUCACCUAGGUAAUCGGGUG [Fam2.2 aminoacylation ribozyme variant] ; self-aminoacylation = 13.1

Form: sequence = CCAAUCUUCAAGCAAUCGGUC [Fam1B.1 aminoacylation ribozyme variant] ; self-aminoacylation = 18.1

###

System: biotinyl-Met-oxazolone
Test: self-aminoacylation, catalytic enhancement (BMO) (fold over background); higher = more active; k-Seq, kA / k0A0; sequences stand for … in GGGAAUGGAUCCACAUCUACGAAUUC…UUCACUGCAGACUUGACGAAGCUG
Variants at the floor of the assay were thinned out.
Lab note: anything with self-aminoacylation at or over 1 counts as True; the rest go in False.

Textbook exercise: given the entry CUACUUCGAACAAGCGGUCUG [Fam1A.1 aminoacylation ribozyme variant] , state whether its self-aminoacylation is greater than or equal to 1. False

Textbook exercise: given the entry AAAUUUGCUACUAGUCGCAAG [Fam3.1 aminoacylation ribozyme variant] , state whether its self-aminoacylation is greater than or equal to 1. True

Textbook exercise: given the entry CCACACUUCAAGCAAUCUGUC [Fam1B.1 aminoacylation ribozyme variant] , state whether its self-aminoacylation is greater than or equal to 1. False

Textbook exercise: given the entry AAGUUUGCUAGUAGUCCCAAG [Fam3.1 aminoacylation ribozyme variant] , state whether its self-aminoacylation is greater than or equal to 1. False

Textbook exercise: given the entry AUUCAGCUAGGACAUCGGGUG [Fam2.2 aminoacylation ribozyme variant] , state whether its self-aminoacylation is greater than or equal to 1. True

Textbook exercise: given the entry AAGUGUGCUAAUGGUCGCAAG [Fam3.1 aminoacylation ribozyme variant] , state whether its self-aminoacylation is greater than or equal to 1. False

Textbook exercise: given the entry AUUCGCCUAGGUCAACGGGUG [Fam2.2 aminoacylation ribozyme variant] , state whether its self-aminoacylation is greater than or equal to 1. True

Textbook exercise: given the entry AAGUUUGCUAAGAGUCGCAUG [Fam3.1 aminoacylation ribozyme variant] , state whether its self-aminoacylation is greater than or equal to 1. True

###

Tested on: biotinyl-Phe-oxazolone
Experiment: self-aminoacylation, catalytic enhancement (BFO) (fold over background); higher = more active; k-Seq, kA / k0A0; sequences stand for … in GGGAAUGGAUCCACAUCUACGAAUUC…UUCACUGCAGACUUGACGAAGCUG
Fewer inactive variants are shown than the library holds.
Readout: self-aminoacylation
Quick one: just the number, no unit, thanks!

Form: sequence = AGUCACCUAGGUCAUCGGGUU [Fam2.2 aminoacylation ribozyme variant] ; self-aminoacylation = 21.7

Form: sequence = AUUACCCUGCUCACCGAGUGA [Fam2.1 aminoacylation ribozyme variant] ; self-aminoacylation = 39

Form: sequence = AUUACCCUGGUCCUCGAGUGA [Fam2.1 aminoacylation ribozyme variant] ; self-aminoacylation = 6.54

Form: sequence = CUACCUCAAACAAUCGGUUUG [Fam1A.1 aminoacylation ribozyme variant] ; self-aminoacylation = 2.48

Form: sequence = CUACUCCAAACAAUUGGUCUG [Fam1A.1 aminoacylation ribozyme variant] ; self-aminoacylation = 0.67

Form: sequence = CCACACUUCUAUCAAUCGGUC [Fam1B.1 aminoacylation ribozyme variant] ; self-aminoacylation = 0.846

Form: sequence = CUACUGCCAACAAUCGGUCUG [Fam1A.1 aminoacylation ribozyme variant] ; self-aminoacylation = 0.775

Form: sequence = CCACACUUCAGUCAAUCGGUC [Fam1B.1 aminoacylation ribozyme variant] ; self-aminoacylation = 1.06

Form: sequence = AAGUUUGCGAAUAGUCGCAUG [Fam3.1 aminoacylation ribozyme variant] ; self-aminoacylation = 1.13

Form: sequence = CGACUUAAAACAAUCGGUCUG [Fam1A.1 aminoacylation ribozyme variant] ; self-aminoacylation = 1.15

Form: sequence = AUUCACCUAGGUCCUCGGGUG [Fam2.2 aminoacylation ribozyme variant] ; self-aminoacylation = 30.2

Form: sequence = CUACUUCAAACAAUCGGCUUG [Fam1A.1 aminoacylation ribozyme variant] ; self-aminoacylation = 2.59

Form: sequence = CUACUUCAAACAAUCGGUCUA [Fam1A.1 aminoacylation ribozyme variant] ; self-aminoacylation = 24.5

Form: sequence = CUACGUCAAACAAUGGGUCUG [Fam1A.1 aminoacylation ribozyme variant] ; self-aminoacylation = 2.25

Form: sequence = AAGUUUGCUAAUAGUCGCGAG [Fam3.1 aminoacylation ribozyme variant] ; self-aminoacylation = 2.01

Form: sequence = AUUCACCUCGGUCAUCUGGUG [Fam2.2 aminoacylation ribozyme variant] ; self-aminoacylation = 29.2

Form: sequence = AUACUUCAAUCAAUCGGUCUG [Fam1A.1 aminoacylation ribozyme variant] ; self-aminoacylation = 8.53

Form: sequence = AAGGUUGCUAGUAGUCGCAAG [Fam3.1 aminoacylation ribozyme variant] ; self-aminoacylation = 1.77

###

Tested on: biotinyl-Met-oxazolone
Assay: self-aminoacylation, catalytic enhancement (BMO) (fold over background); higher = more active; k-Seq, kA / k0A0; sequences stand for … in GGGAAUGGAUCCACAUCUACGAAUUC…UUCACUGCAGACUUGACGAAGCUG
Variants at the floor of the assay were thinned out.
Lab note: anything with self-aminoacylation at or over 1 counts as true (1); the rest go in false (0).

Textbook exercise: given the entry GCCCACUUCAAGCAAUCGGUC [Fam1B.1 aminoacylation ribozyme variant] , state whether its self-aminoacylation is greater than or equal to 1. true (1)

Textbook exercise: given the entry AAGUUUGCUAAUAGUCCCAAC [Fam3.1 aminoacylation ribozyme variant] , state whether its self-aminoacylation is greater than or equal to 1. false (0)

Textbook exercise: given the entry CCACACUUGAAGGAAUCGGUC [Fam1B.1 aminoacylation ribozyme variant] , state whether its self-aminoacylation is greater than or equal to 1. true (1)

Textbook exercise: given the entry AUCACCGUGGUCAUCGAGUGA [Fam2.1 aminoacylation ribozyme variant] , state whether its self-aminoacylation is greater than or equal to 1. true (1)

Textbook exercise: given the entry AUUCACCGACGUCAUCGGGUG [Fam2.2 aminoacylation ribozyme variant] , state whether its self-aminoacylation is greater than or equal to 1. true (1)

Textbook exercise: given the entry AUACACCUCGGUCAUCGGGUG [Fam2.2 aminoacylation ribozyme variant] , state whether its self-aminoacylation is greater than or equal to 1. true (1)

Textbook exercise: given the entry CCACACGUCAAGCAAUCGAUC [Fam1B.1 aminoacylation ribozyme variant] , state whether its self-aminoacylation is greater than or equal to 1. false (0)

Textbook exercise: given the entry CUAUUUCAAACAAUCGGUCUA [Fam1A.1 aminoacylation ribozyme variant] , state whether its self-aminoacylation is greater than or equal to 1. false (0)

Textbook exercise: given the entry CUACUUCACACGAUCGGUCUG [Fam1A.1 aminoacylation ribozyme variant] , state whether its self-aminoacylation is greater than or equal to 1. false (0)

Textbook exercise: given the entry CCACACUUUAAGCAAUGGGUC [Fam1B.1 aminoacylation ribozyme variant] , state whether its self-aminoacylation is greater than or equal to 1. false (0)

Textbook exercise: given the entry CAUCACCUAGGUCAUCGGGUG [Fam2.2 aminoacylation ribozyme variant] , state whether its self-aminoacylation is greater than or equal to 1. true (1)

Textbook exercise: given the entry AAGUUUGGUAAUAGUCGUAAG [Fam3.1 aminoacylation ribozyme variant] , state whether its self-aminoacylation is greater than or equal to 1. false (0)

Textbook exercise: given the entry CUAAUUCAAACUAUCGGUCUG [Fam1A.1 aminoacylation ribozyme variant] , state whether its self-aminoacylation is greater than or equal to 1. true (1)

Textbook exercise: given the entry GUUCACCUAGGUCAUCGGGUG [Fam2.2 aminoacylation ribozyme variant] , state whether its self-aminoacylation is greater than or equal to 1. true (1)

Textbook exercise: given the entry GCACACUGCAAGCAAUCGGUC [Fam1B.1 aminoacylation ribozyme variant] , state whether its self-aminoacylation is greater than or equal to 1. true (1)

Textbook exercise: given the entry AUUCACCUAGAUCAGCGGGUG [Fam2.2 aminoacylation ribozyme variant] , state whether its self-aminoacylation is greater than or equal to 1. true (1)

Textbook exercise: given the entry CUACUUCAAACAACCGUUCUG [Fam1A.1 aminoacylation ribozyme variant] , state whether its self-aminoacylation is greater than or equal to 1. false (0)

Textbook exercise: given the entry AUUCACCGGGGUCAUCGGGUG [Fam2.2 aminoacylation ribozyme variant] , state whether its self-aminoacylation is greater than or equal to 1. true (1)

Textbook exercise: given the entry AUUUCCCUGGUCAUCGAGAGA [Fam2.1 aminoacylation ribozyme variant] , state whether its self-aminoacylation is greater than or equal to 1. false (0)

Textbook exercise: given the entry AUUACCCUGGUCCUCGAGUGA [Fam2.1 aminoacylation ribozyme variant] , state whether its self-aminoacylation is greater than or equal to 1. true (1)

Textbook exercise: given the entry AUUGACCUAGGACAUCGGGUG [Fam2.2 aminoacylation ribozyme variant] , state whether its self-aminoacylation is greater than or equal to 1. true (1)

Textbook exercise: given the entry AUUCAACUAGGUCAUCUGGUG [Fam2.2 aminoacylation ribozyme variant] , state whether its self-aminoacylation is greater than or equal to 1. true (1)

Textbook exercise: given the entry AUUAGCCUGGUCAUAGAGUGA [Fam2.1 aminoacylation ribozyme variant] , state whether its self-aminoacylation is greater than or equal to 1. true (1)

Textbook exercise: given the entry CCACGCUUCAAGCAGUCGGUC [Fam1B.1 aminoacylation ribozyme variant] , state whether its self-aminoacylation is greater than or equal to 1. true (1)

Textbook exercise: given the entry AUCAACCUGGUCAUCGAGUGA [Fam2.1 aminoacylation ribozyme variant] , state whether its self-aminoacylation is greater than or equal to 1. true (1)

Textbook exercise: given the entry GAGUUUGCGAAUAGUCGCAAG [Fam3.1 aminoacylation ribozyme variant] , state whether its self-aminoacylation is greater than or equal to 1. true (1)

Textbook exercise: given the entry CGACACUUCAAGCAAUCGGUG [Fam1B.1 aminoacylation ribozyme variant] , state whether its self-aminoacylation is greater than or equal to 1. true (1)

Textbook exercise: given the entry CUACUUCAAACAACCGGUCCG [Fam1A.1 aminoacylation ribozyme variant] , state whether its self-aminoacylation is greater than or equal to 1. false (0)

Textbook exercise: given the entry GAGUUUGCUAAUAGUCGCAAA [Fam3.1 aminoacylation ribozyme variant] , state whether its self-aminoacylation is greater than or equal to 1. true (1)

Textbook exercise: given the entry AUUCGCCUAGGUCAUCGGCUG [Fam2.2 aminoacylation ribozyme variant] , state whether its self-aminoacylation is greater than or equal to 1. true (1)

Textbook exercise: given the entry AUUACCCUGGUCCUCGAGAGA [Fam2.1 aminoacylation ribozyme variant] , state whether its self-aminoacylation is greater than or equal to 1. false (0)

Textbook exercise: given the entry CUCCUUCAAACAAUCGGUCUG [Fam1A.1 aminoacylation ribozyme variant] , state whether its self-aminoacylation is greater than or equal to 1. true (1)

Textbook exercise: given the entry AUUCUUCAAACAAUCGGUCUG [Fam1A.1 aminoacylation ribozyme variant] , state whether its self-aminoacylation is greater than or equal to 1. false (0)

Textbook exercise: given the entry AUUUACCUUGGUCAUCGGGUG [Fam2.2 aminoacylation ribozyme variant] , state whether its self-aminoacylation is greater than or equal to 1. true (1)
